# Test: solubility to propylene glycol monomethyl ether acetate (PM) and cyclohexanone (AN)
# Cond: propylene glycol monomethyl ether acetate
Consider the following compounds; for each one, report its Solubility to Solvent PM.

Please report the recorded Solubility to Solvent PM for `CCN(CC)C(=O)/C(C)=C/c1ccc(OC)c([N+](=O)[O-])c1` .
>50 mass %

Give the measured Solubility to Solvent PM of CCO[Si](C)(CCCN)OCC [Comparative Compound 6, reference compound] .
>50 mass %

Can you share its Solubility to Solvent PM? I mean this compound: `COc1ccc(/C=C(\C)C(=O)n2ccnc2)c([N+](=O)[O-])c1`
>50 mass %

Need Solubility to Solvent PM of COc1ccc(C=CC(=O)n2ccnc2)c(O)c1 [compound 9, reference compound] , thanks.
>50 mass %

Entry `CCN(CC)C(=O)C(C)=Cc1ccc(OC)cc1` : reported Solubility to Solvent PM = ?
>50 mass %

Can you look up the measured Solubility to Solvent PM of `CCN(CC)C(=O)/C=C/c1ccc(OC)cc1[N+](=O)[O-]` for me?
>50 mass %

Fill in: Solubility to Solvent PM of `COc1ccc(C=CC(=O)N2CCCCC2)cc1` is ___
>50 mass %

Can you look up the measured Solubility to Solvent PM of `CCN(CC)C(=O)/C(C)=C/c1ccc(OC)cc1[N+](=O)[O-]` for me?
>50 mass %

Bench note: what Solubility to Solvent PM did `COc1ccc(/C=C/C(=O)Nc2ccccc2)cc1` show?
>50 mass %

What Solubility to Solvent PM value was documented for this compound, CCN(CC)C(=O)C=Cc1ccc(OC)cc1O [compound 7, reference compound] ?
>50 mass %

Look at this compound and give its reported Solubility to Solvent PM. `COc1ccc(/C=C/C(=O)N2CCCCC2)cc1[N+](=O)[O-]`
>50 mass %

Reported Solubility to Solvent PM, compound `COc1ccc(/C=C/C(=O)n2ccnc2)cc1` : ____
>50 mass %

Recorded Solubility to Solvent PM for COc1ccccc1/C=C/C(=O)N1CCCCC1 [Comparative Compound 2, reference compound] , please?
<1 mass %

Which Solubility to Solvent PM is reported for this compound? `COc1ccc(/C=C/C(=O)N2CCCCC2)c([N+](=O)[O-])c1`
>50 mass %

Report Solubility to Solvent PM for `COc1ccc(/C=C(\C)C(=O)N2CCCCC2)cc1[N+](=O)[O-]` please.
>50 mass %

Reported Solubility to Solvent PM, compound `CCN(CC)C(=O)/C=C/c1ccc(OC)c([N+](=O)[O-])c1` : ____
>50 mass %

Which value of Solubility to Solvent PM has been reported for `CCN(CC)C(=O)/C=C/c1ccc(OC)cc1` in the records?
>50 mass %

Can you share its Solubility to Solvent PM? I mean this compound: `COc1ccc(/C=C(\C)C(=O)N2CCCCC2)c([N+](=O)[O-])c1`
>50 mass %
